# EC50 listing for each entry below
- Tested on: Human RSV-A (“Long” strain)
- PROTOCOL_DESCRIPTION: RSV in vitro cytoprotection assay (CPE, ATPlite) in HEp-2 cells
- Format: cell-based
- REPORTED_CONDITIONS: human respiratory syncytial virus, 96 h; HEp-2 cells, 4-day incubation, ATPlite readout; read-out: Human RSV-A (“Long” strain) EC50
READOUT_KIND: EC50

                   compound_structure_string  observed_measurement
 0  O=C(Nc1ccc(C(=O)N2CCc3cc(-c4nc5ccccc5[nH]4)oc3-c3ccc(F)cc32)cc1)c1cc2c(nc1N1CC3(CCOCC3)C1)CCC2               < 10 nM
 1  O=C(Nc1c(F)cccc1F)c1cc2c(s1)-c1ccc(F)cc1N(C(=O)c1ccc(NC(=O)c3cccnc3C3=CCOCC3)cc1)CC2               > 50 nM
 2  Cc1cnc(N2CC3(CCOCC3)C2)c(C(=O)Nc2ccc(C(=O)N3CCc4cc(-c5nc6ccccc6[nH]5)sc4-c4ccc(F)cc43)cc2)c1               < 10 nM
 3  Cc1cnc(N2CC3(CCOCC3)C2)c(C(=O)Nc2ccc(C(=O)N3CCc4cc(-c5ncns5)sc4-c4ccc(F)cc43)cc2)c1               < 10 nM
 4  Cc1cnc(N2CC3(CCOCC3)C2)c(C(=O)Nc2ccc(C(=O)N3CCc4c(sc(C(=O)Nc5c(C)cccc5F)c4Cl)-c4ccccc43)cc2)c1               < 10 nM
 5  O=C(Nc1c(F)cccc1Cl)c1cc2c(o1)-c1ccccc1N(C(=O)c1ccc(NC(=O)c3cc4c(nc3N3CC5(CCOCC5)C3)CCC4)cc1)CC2               < 10 nM
 6  Cc1cnc(N2CC3(CCOCC3)C2)c(C(=O)Nc2ccc(C(=O)N3CCc4cc(C(=O)Nc5ccccc5F)sc4-c4ccc(F)cc43)cc2)c1               < 10 nM
 7  Cc1cnc(N2CC3(CCOCC3)C2)c(C(=O)Nc2ccc(C(=O)N3CCc4c(sc(C(=O)Nc5c(C)cccc5C)c4Cl)-c4ccccc43)cc2)c1           10 to 50 nM
 8  Cc1cnc(N2CC3(CCOCC3)C2)c(C(=O)Nc2ccc(C(=O)N3CCc4cc(-c5nc(C)cs5)sc4-c4ccc(F)cc43)cc2)c1           10 to 50 nM
 9  O=C(Nc1ccc(C(=O)N2CCc3cc(-c4nc5cc(F)c(F)cc5[nH]4)sc3-c3ccc(F)cc32)cc1)c1cccnc1N1CC2(CCOCC2)C1               > 50 nM
10  CCOCCN(C)c1ncccc1C(=O)Nc1ccc(C(=O)N2CCc3cc(C(=O)Nc4c(F)cccc4F)sc3-c3ccc(F)cc32)cc1               > 50 nM
11  Cc1cnc(N2CC3(CCOCC3)C2)c(C(=O)Nc2ccc(C(=O)N3CCc4cc(-c5ccccn5)sc4-c4ccc(F)cc43)cc2)c1               < 10 nM
